# Tested on: MS2 coat protein
# Test details: apparent KD of MS2 coat protein; designed switch direction (-1 OFF switch, 1 ON switch): -1; higher = weaker reporter binding
# Condition notes: Eterna round: R95; input ligand: FMN 200 uM
Attribute measured: apparent KD of MS2 coat protein (nM)
Please state the figure in nM; there is no need to write the unit.

Recorded results for 4 sequences are shown here.
- UCCUCACAUGAGGAUCACCCAUGUCAGGAUAUACAAGAAAAUAACCGGAAAGAACGGAGUAGAAGGGACAUAAG [Xeontiorer] (puzzle: Exclusion 1): 27.4
- GUGGUCCGAGGAUAUAUUAUGUGAUACAUGAGGAUCACCCAUGUUAUAUGAUGGAUGUUAGUAGAAGGCGGACUAC [Mat - Exclusion 5 - JL mod - D82] (puzzle: Exclusion 5): 95.2
- UUUAAUUUUUUUUUUUUACAAGCUUUUUGCUCGUCUUAUACAUGAGGAUCACCCAUGUAGGUGAGGAGUAAAUUAUC [JMF 62] (puzzle: Sensor v3, turn-off variant 2): 15.5
- GAAAAGGUAGGAUAUACGAGAAGAAAGGGUAGAGAAGAAACACAUGAGGAUCACCCAUGUAGAAGGACCAAAAG [salish99_ex2_r3_099] (puzzle: Exclusion 2): 66.7

Okay, next one:
Look up apparent KD of MS2 coat protein for this sequence: CUGGUCCGAGGAUAUAUUAAGUGAUACAUGAGGAUCACCCAUGUUAUUUGAUGGAUAUUAAUAGAAGGCGGACUAG [Mat - Exclusion 5 - JL mod - D75] (puzzle: Exclusion 5)
31.9

Provenance of the data: the supplement of paper PMC9170038
